Biological target: THR beta (Homo sapiens, UniProt P10828)
Construct: expressed in transfected cells; host or cells: HEK293T (ATCC CRL-3216)
Sequence (P10828 1-461): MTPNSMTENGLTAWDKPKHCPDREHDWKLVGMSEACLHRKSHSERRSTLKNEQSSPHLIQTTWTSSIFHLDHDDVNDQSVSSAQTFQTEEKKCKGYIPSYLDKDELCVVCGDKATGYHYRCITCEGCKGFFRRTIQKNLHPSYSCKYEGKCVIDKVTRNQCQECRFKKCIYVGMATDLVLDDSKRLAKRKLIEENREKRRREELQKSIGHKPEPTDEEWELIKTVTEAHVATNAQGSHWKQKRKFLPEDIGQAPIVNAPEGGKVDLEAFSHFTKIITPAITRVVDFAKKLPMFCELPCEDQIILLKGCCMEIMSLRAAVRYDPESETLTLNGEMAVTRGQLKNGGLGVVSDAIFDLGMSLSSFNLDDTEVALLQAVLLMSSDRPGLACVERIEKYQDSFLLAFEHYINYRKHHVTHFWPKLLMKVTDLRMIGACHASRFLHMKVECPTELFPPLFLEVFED
Sequence (P19793 1-462 partner): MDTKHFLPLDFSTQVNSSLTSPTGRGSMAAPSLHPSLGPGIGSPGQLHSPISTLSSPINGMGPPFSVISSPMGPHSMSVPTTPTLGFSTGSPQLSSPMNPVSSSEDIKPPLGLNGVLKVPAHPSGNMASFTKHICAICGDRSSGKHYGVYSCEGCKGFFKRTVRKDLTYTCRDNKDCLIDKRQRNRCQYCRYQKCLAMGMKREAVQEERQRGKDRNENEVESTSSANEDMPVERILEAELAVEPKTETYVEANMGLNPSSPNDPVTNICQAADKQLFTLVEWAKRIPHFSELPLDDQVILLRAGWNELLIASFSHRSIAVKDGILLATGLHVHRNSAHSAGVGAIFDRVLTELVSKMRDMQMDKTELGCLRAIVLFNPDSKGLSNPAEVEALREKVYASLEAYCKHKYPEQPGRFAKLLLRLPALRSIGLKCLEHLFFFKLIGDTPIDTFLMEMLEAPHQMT
Experiment: HEK293T THR beta/RXR luciferase reporter assay (Assay 2)
Assay type: cell-based
Settings: HEK-293T; Table 5; Assay 2; THRβ; read-out: Activity category Assay 2 THRβ (Emax)
Below: a set of entries, each annotated with reported Emax.

// known answers, use as guide
MOLECULE: CC(C)Nc1n[nH]c2ccc(Oc3c(Cl)cc(-n4nc(C#N)c(=O)[nH]c4=O)cc3Cl)cc12
EXPERIMENTAL VALUE: 50 to 75%
//
MOLECULE: Nc1nn(-c2cc(Cl)c(Oc3cc(Cc4ccc(=O)[nH]n4)c(=O)[nH]n3)c(Cl)c2)c(=O)[nH]c1=O
EXPERIMENTAL VALUE: < 50%
//
MOLECULE: CC(C)c1cc(Oc2c(Cl)cc(-n3nc(N)c(=O)[nH]c3=O)cc2Br)n[nH]c1=O
EXPERIMENTAL VALUE: > 75%

Lab note: CC(C)c1cc(Cc2c(Cl)cc(-n3nc(N)c(=O)[nH]c3=O)cc2Cl)n[nH]c1=O gave Emax of 50 to 75%

Lab note: Cc1cccc(-c2cc(Oc3c(Cl)cc(-n4nc(N)c(=O)[nH]c4=O)cc3Cl)n[nH]c2=O)c1 gave Emax of > 75%

Lab note: CC(c1ccccc1)c1cc(Oc2c(Cl)cc(-n3nc(N)c(=O)[nH]c3=O)cc2Cl)n[nH]c1=O (single isomer, unassigned) gave Emax of > 75%

Lab note: CO[C@H]1C[C@@H](c2cc(Oc3c(Cl)cc(-n4nc(N)c(=O)[nH]c4=O)cc3Cl)n[nH]c2=O)C1 gave Emax of < 50%
